# subject-of-test: T1, RL peptide (Octet assay of PS621 variants)
# T1 construct: RXKLDEESILKQK with X = L
# T1 peptide: RLKLDEESILKQK
# run-description: Octet (BLI), 30 C
# Source text: Peptides of the sequence RXKLDEESILKQK (SEQ ID NO: 1076) were also used to evaluate the penultimate residue effect.
endpoint-name: Octet response

Given the entry PS1111 (designed binder, Variant of PS621) MHSKFSHAGRICGAKFKVGEPIYRCKECSFDDTCVLCVNCFNPKDHTGHHVYTTICTEFNNGICDCGDKSAWNHTLFCKAEEG , report its measured Octet response.
10

Given the entry PS1114 (designed binder, Variant of PS621) MHSKFSHAGRICGAKFKVGEPIYRCKECSFDDTCVLCVNCFNPKDHRGHHVYTTICTERNNGICDCGDKEAWNHTLFCKAEEG , report its measured Octet response.
9.7

Given the entry PS1107 (designed binder, Variant of PS621) MHSKFSHAGRICGAKFKVGEPIYRCKECSFDDTCVLCVNCFNPKDHTGHHVYTTICREFNNGICDCGDKEAWNHTLFCKAEEG , report its measured Octet response.
8.1

Given the entry PS621 (other, UBR protein (UBR-box) parent of PS1101-PS1122) MHSKFSHAGRICGAKFKVGEPIYRCKECSFDDTCVLCVNCFNPKDHTGHHVYTTICTEFNNGICDCGDKEAWNHTLFCKAEEG , report its measured Octet response.
10.2

Given the entry PS1110 (designed binder, Variant of PS621) MHSKFSHAGRICGAKFKVGEPIYRCKECSFDDTCVLCVNCFNPKDHTGHHVYTTICTEFNNGECDCGDKEAWNHTLFCKAEEG , report its measured Octet response.
9.8

Given the entry PS1103 (designed binder, Variant of PS621) MHSKFSHAGRICGAKFKVGEPIYRCKECSFDYTCVLCVNCFNPKDHTGHHVYTTICTEFNNGICDCGDKEAWNHTLFCKAEEG , report its measured Octet response.
8.4
